- method-notes: Antiinflammatory activity in human neutrophils assessed as inhibition of fMLP/CB-induced elastase release using MeO-Suc-Ala-Ala-Pro-Val-p-nitroanilide as elastase substrate preincubated for 5 mins followed by fMLP/CB-induction
- Format: functional, cell-based
- measurement-context: Neutrophil
pIC50: −log10 of the molar value.
met means recorded pIC50 is 6 or above; not met means it is below 6.

{"smiles-input": "COc1cc(O)cc2c1-c1ccc(O)cc1CC2", "cat": "not met"}
{"smiles-input": "CC(C)C[C@@](O)(CC(=O)OCc1ccc(O[C@@H]2O[C@H](CO)[C@@H](O)[C@H](O)[C@H]2O)cc1)C(=O)OCc1ccc(O[C@@H]2O[C@H](CO)[C@@H](O)[C@H](O)[C@H]2O)cc1", "cat": "not met"}
{"smiles-input": "COC1=CC(=O)C2=C(CCc3cc(O)ccc32)C1=O", "cat": "not met"}
{"smiles-input": "COc1cccc(CCc2c(Cc3ccc(O)cc3)c(O)cc(OC)c2Cc2ccc(O)cc2)c1", "cat": "not met"}
{"smiles-input": "COc1c(O)cc2c(c1OC)-c1ccc(O)cc1CC2", "cat": "not met"}
{"smiles-input": "COc1cc2c(ccc3c(-c4c(O)cc(OC)c5c4ccc4cc(O)ccc45)c(O)cc(OC)c32)cc1O", "cat": "not met"}
{"smiles-input": "CC[C@H](Nc1ncnc2[nH]cnc12)c1nc2cccc(F)c2c(=O)n1-c1ccccc1", "cat": "met"}
{"smiles-input": "COc1cc2c(ccc3cc(O)c(OC)c(OC)c32)cc1O", "cat": "not met"}
{"smiles-input": "COc1c(Cc2ccc(O)cc2)c(O)cc2c1-c1ccc(O)cc1CC2", "cat": "not met"}
{"smiles-input": "COc1cc2c(ccc3c(-c4c(O)cc(OC)c5c4ccc4cc(O)c(OC)cc45)c(O)cc(OC)c32)cc1O", "cat": "met"}
{"smiles-input": "COc1cc2ccc3c(-c4c(O)cc(OC)c5c4ccc4cc(O)c(OC)cc45)c(O)cc(OC)c3c2cc1O", "cat": "not met"}
{"smiles-input": "CC[C@@H](CC[C@@H](C)[C@H]1CC[C@H]2[C@@H]3CC=C4C[C@@H](O[C@@H]5O[C@H](CO)[C@@H](O)[C@H](O)[C@H]5O)CC[C@]4(C)[C@H]3CC[C@]12C)C(C)C", "cat": "not met"}
{"smiles-input": "COc1cc(O)cc(CCc2cccc(O)c2)c1", "cat": "not met"}

// provenance: ChEMBL document CHEMBL3865837
